- target-system: T1, human IL-1RAcP on 293T/17-FR cells (human, UniProt Q9NPH3 21-570)
- T1 sequence (looked up): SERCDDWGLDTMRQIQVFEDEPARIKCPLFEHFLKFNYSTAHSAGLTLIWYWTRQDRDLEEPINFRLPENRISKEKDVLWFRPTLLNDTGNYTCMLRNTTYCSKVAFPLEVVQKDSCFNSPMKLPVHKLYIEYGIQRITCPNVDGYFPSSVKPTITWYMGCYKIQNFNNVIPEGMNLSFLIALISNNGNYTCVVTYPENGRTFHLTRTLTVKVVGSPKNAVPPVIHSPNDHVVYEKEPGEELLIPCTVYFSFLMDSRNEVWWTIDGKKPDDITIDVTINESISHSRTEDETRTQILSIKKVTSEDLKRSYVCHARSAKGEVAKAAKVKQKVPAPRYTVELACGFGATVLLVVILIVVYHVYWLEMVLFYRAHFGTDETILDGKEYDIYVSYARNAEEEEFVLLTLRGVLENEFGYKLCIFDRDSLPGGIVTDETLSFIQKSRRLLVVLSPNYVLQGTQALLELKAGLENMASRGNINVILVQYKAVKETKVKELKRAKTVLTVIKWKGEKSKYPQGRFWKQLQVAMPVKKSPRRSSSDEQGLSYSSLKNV
- method-summary: cell-based or functional assay
measured-parameter: functional reporter gene assay (% inhibition), 5 µg/mL mAb (%)
Field format: number, assumed %, no unit text.

Request: What value of functional reporter gene assay (% inhibition), 5 µg/mL mAb has been reported for the following binder? P013.S.01.B.A02 (antibody, V domains shown, rabbit monoclonal antibody; also called P013.A.00003.H11) VH: QSVEESGGRLVTPGTPLTLTCTVSGIDLSSYAMGWVRQAPGKGLEYIGVITSSATTYYASWAKGRFTISKTSSTTVDLRVTSLTTEDTATYFCARGGPGYSTNTHYAFDPWGPGTLVTVSS VL: AFEMTQTPSSVSEPVGGTVTIKCQASQSIYIYLSWYQQKPGQRPKLLIYDASKLASGVPSRFSGSGSGTEFTLTISGVQSDDAATYYCQQGATTYNVDNVFGGGTEVVVK
Result: 98

Request: Which functional reporter gene assay (% inhibition), 5 µg/mL mAb is listed for P013.S.01.B.H05 (antibody, V domains shown, rabbit monoclonal antibody; also called P013.A.00109.F08) VH: LEQSGGGAEGGLVKPGGSLELCCKASGFSLSNSYWICWVRQAPGKGLEWIGCIYVGSSGSTYYASWVNGRFTLSRDIDQSTGCLQLNSLTAADTAIYYCARDGATSTSGHLFELWGQGTLVTVSS VL: ALVMTQTPSPVSAAVGGTVTINCQASEDIYSNLAWFQQKPGQPPKLLIYRASTLASGVPSRFSGSGSGTEFTLTISGVQSDDAATYYCLGIYTYISADGSLYNAFGGGTEVVVK ?
Result: 90

Request: Need functional reporter gene assay (% inhibition), 5 µg/mL mAb, item P013.S.01.B.E06 (antibody, V domains shown, rabbit monoclonal antibody; also called P013.A.00030.F07) VH: QSLEESGGDLVKPGASLTLTCTASGFSFSSTYYMCWVRQAPGKGLEWIACIYAGSSGSTYYASWAKGRFTISKTSSTTVTLQMTSLTAADTATYFCARVDGSSSGSWDLWGPGTLVTVSS VL: AIEMTQTPSSVSAAVGGTVTINCQASQNIYSNLAWYQQKPGQRPKLLIYAASLLASGVPSRFKGNGSGTEYTLTISDLESADAATYYCQGAVYSGNTEWAFGGGTEVVVK
Result: 91
